# System: rodent carcinogenicity bioassays, tumor incidence
# test method notes: CCRIS carcinogenicity studies
# settings: Species: MOUSE; Strain/Sex: B6C3F1/FEMALE; Route: ORAL; Dose: 0; 25000; 50000 PPM IN DIET; Dose: 0; 25000; 50000 PPM IN DIET
The source made the active and inactive calls. How the calls were made is not given here.
property measured: carcinogen call

Look over these answered cases.
S=C(NC1CCCCC1)NC1CCCCC1 ... inactive; negative
Nc1ccccc1C(=O)O ... inactive; negative
CCCCNC(=O)NS(=O)(=O)c1ccc(C)cc1 ... inactive; negative
OC[C@@H](O)[C@@H](O)[C@H](O)[C@H](O)CO ... inactive; negative

Turning to the following molecule.
Can you share its carcinogen call? I mean this molecule: N[C@@H](Cc1c[nH]c2ccccc12)C(=O)O
inactive; negative

---

# Test system: rodent carcinogenicity bioassays, tumor incidence
# test method notes: CCRIS carcinogenicity studies
# settings: Species: MOUSE; Strain/Sex: B6C3F1/MALE; Route: ORAL; Dose: 0; 5000; 10000 PPM IN DIET; Dose: 0; 5000; 10000 PPM IN DIET
Calls of active or inactive are those of the source. The rule behind the calls is not given here.
property measured: carcinogen call

c1ccc2c(c1)Oc1ccccc1O2 ... inactive; negative
NC(=O)c1cnccn1 ... inactive; negative
Cc1ccc(S(=O)(=O)NC(=O)NN2CCCCCC2)cc1 ... inactive; negative
CC(=O)Nc1ccc(C(=O)CCl)cc1 ... inactive; negative
